Tested on: ATP;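 also: ATP exposure 15 min at 22 °C before imaging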
experiment description: switch fluorescence ratio, 500 uM ATP over buffer (Cy3 cluster intensity, sum of 5 cycles each) (fold (ratio)); higher = stronger signal-on switching upon ATP binding; sequences stand for … in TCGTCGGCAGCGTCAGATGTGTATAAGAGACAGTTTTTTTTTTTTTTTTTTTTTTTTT…TC
test settings: aptamer strand: ATP DNA aptamer (quencher-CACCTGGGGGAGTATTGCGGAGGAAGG + anchor), 100 nM annealed; ATP concentration: 500 uM
test readout: switch fluorescence ratio
Number only, no unit.

1) TGAATGATTG | 0.995

Data request: State its switch fluorescence ratio on ATP: TTTCCTAGTT
Data returned: 1.03
